These entries and their values trace back to ChEMBL document CHEMBL1152687.

Assign concentration at 2 h to each entry below.
- PROCEDURE_TEXT: Plasma concentration in cynomolgus monkey at 1 mg/kg, po after 2 hrs
- Assay type: ADME, organism-based, Macaca fascicularis
- Set-up: dose 1 mg/kg, route oral
# number only, unit ng/mL dropped from output

concentration at 2 h for Cc1ncc2n1C(=O)N(C1CCN(C(=O)CCS(=O)(=O)c3ccc4cc(Cl)ccc4c3)CC1)C2 is 132

concentration at 2 h for O=C(CCS(=O)(=O)c1ccc2cc(Cl)ccc2c1)N1CCC(N2Cc3cnc(CO)n3C2=O)CC1 is 25

What the record says about Cc1ncc2n1C(=O)N(C1CCN(C(=O)[C@@H](O)CS(=O)(=O)c3ccc4cc(Cl)ccc4c3)CC1)C2 : concentration at 2 h is 4.4

Reported concentration at 2 h for Cc1ncc2n1C(=O)N(C1CCN(C(=O)[C@H](O)CS(=O)(=O)c3ccc4cc(Cl)ccc4c3)CC1)C2 was 6.8

###

pIC50: −log10 of the molar value.
Assign pIC50 to each entry below.

# O=S(O)c1ccc2cc(Cl)ccc2c1 with Coagulation factor X (Homo sapiens): pIC50 is < 5.30

Observed pIC50 on Coagulation factor X (Homo sapiens), entry NC1CCN(C(=O)CCS(=O)(=O)c2ccc3cc(Cl)ccc3c2)CC1 , equals < 5.30

###

- PROCEDURE_TEXT: Plasma concentration in cynomolgus monkey at 1 mg/kg, po after 1 hr
- Assay type: ADME, organism-based, Macaca fascicularis
- Parameters: dose 1 mg/kg, route oral
RECORDED_ENDPOINT: concentration at 1 h (ng/mL)
Quick note: give the figure in ng/mL, leave out the unit.

Notebook: Cc1ncc2n1C(=O)N(C1CCN(C(=O)[C@H](O)CS(=O)(=O)c3ccc4cc(Cl)ccc4c3)CC1)C2 , concentration at 1 h read as 2.7

Record summary for Cc1ncc2n1C(=O)N(C1CCN(C(=O)CCS(=O)(=O)c3ccc4cc(Cl)ccc4c3)CC1)C2 : reported concentration at 1 h = 92.8

Record O=C(CCS(=O)(=O)c1ccc2cc(Cl)ccc2c1)N1CCC(N2Cc3cnc(CO)n3C2=O)CC1 . Reported concentration at 1 h: 16.6

Given item Cc1ncc2n1C(=O)N(C1CCN(C(=O)[C@@H](O)CS(=O)(=O)c3ccc4cc(Cl)ccc4c3)CC1)C2 , the value recorded as its concentration at 1 h is 0.8

###

Exercise: state measured bioavailability for each of the compounds provided.
- PROCEDURE_TEXT: Oral bioavailability in cynomolgus monkey at 1 mg/kg, po
- Assay type: ADME, organism-based, Macaca fascicularis
- STUDY_CONDITIONS: in vivo
Response body: numeric value in %, unit text excluded.

Measured bioavailability, Cc1ncc2n1C(=O)N(C1CCN(C(=O)[C@H](O)CS(=O)(=O)c3ccc4cc(Cl)ccc4c3)CC1)C2 : 25.4

Looking up O=C(CCS(=O)(=O)c1ccc2cc(Cl)ccc2c1)N1CCC(N2Cc3cnc(CO)n3C2=O)CC1 , I see its bioavailability listed as 32.3

###

Give measured concentration at 10 h for each item. Keep answers brief.
- PROCEDURE_TEXT: Plasma concentration in cynomolgus monkey at 1 mg/kg, po after 10 hrs
- Format: ADME, organism-based, Macaca fascicularis
- Design: dose 1 mg/kg, route oral
A number alone suffices; assume ng/mL.

Value of measured concentration at 10 h for the entry Cc1ncc2n1C(=O)N(C1CCN(C(=O)CCS(=O)(=O)c3ccc4cc(Cl)ccc4c3)CC1)C2 : 9.9

// concentration at 10 h value for Cc1ncc2n1C(=O)N(C1CCN(C(=O)[C@H](O)CS(=O)(=O)c3ccc4cc(Cl)ccc4c3)CC1)C2 : 1.8

Field concentration at 10 h (entry Cc1ncc2n1C(=O)N(C1CCN(C(=O)[C@@H](O)CS(=O)(=O)c3ccc4cc(Cl)ccc4c3)CC1)C2 ) reads 3.6

###

- PROCEDURE_TEXT: AUC (0 to 10 hrs) in cynomolgus monkey at 1 mg/kg, po
- Format: ADME, organism-based, Macaca fascicularis
- Parameters: time < 10 hr, dose 1 mg/kg, route oral
- STUDY_CONDITIONS: plasma
Could you please report measured AUC(0-t) at 10 h for the items listed next?
The figure you give is taken to be in ng·h/mL; do not add the unit.

Reported AUC(0-t) at 10 h for Cc1ncc2n1C(=O)N(C1CCN(C(=O)[C@H](O)CS(=O)(=O)c3ccc4cc(Cl)ccc4c3)CC1)C2 was 44.2

Recorded result, Cc1ncc2n1C(=O)N(C1CCN(C(=O)CCS(=O)(=O)c3ccc4cc(Cl)ccc4c3)CC1)C2 , AUC(0-t) at 10 h: 583

The compound identified as Cc1ncc2n1C(=O)N(C1CCN(C(=O)[C@@H](O)CS(=O)(=O)c3ccc4cc(Cl)ccc4c3)CC1)C2 registered its AUC(0-t) at 10 h at 54.6

Given item O=C(CCS(=O)(=O)c1ccc2cc(Cl)ccc2c1)N1CCC(N2Cc3cnc(CO)n3C2=O)CC1 , the value recorded as its AUC(0-t) at 10 h is 107

###

- PROCEDURE_TEXT: Mean residence time in cynomolgus monkey at 1 mg/kg, po
- Format: ADME, organism-based, Macaca fascicularis
- Set-up: dose 1 mg/kg, route oral
- STUDY_CONDITIONS: in vivo
RECORDED_ENDPOINT: MRT (h)
Value expressed in h; do not type the unit.

Consider O=C(CCS(=O)(=O)c1ccc2cc(Cl)ccc2c1)N1CCC(N2Cc3cnc(CO)n3C2=O)CC1 . Its measured MRT is 7.56

Sample Cc1ncc2n1C(=O)N(C1CCN(C(=O)[C@H](O)CS(=O)(=O)c3ccc4cc(Cl)ccc4c3)CC1)C2 ; MRT observed: 7.05

###

- ASSAYED_SYSTEM: Tissue-type plasminogen activator (Homo sapiens)
- Sequence (P00750 whole entry): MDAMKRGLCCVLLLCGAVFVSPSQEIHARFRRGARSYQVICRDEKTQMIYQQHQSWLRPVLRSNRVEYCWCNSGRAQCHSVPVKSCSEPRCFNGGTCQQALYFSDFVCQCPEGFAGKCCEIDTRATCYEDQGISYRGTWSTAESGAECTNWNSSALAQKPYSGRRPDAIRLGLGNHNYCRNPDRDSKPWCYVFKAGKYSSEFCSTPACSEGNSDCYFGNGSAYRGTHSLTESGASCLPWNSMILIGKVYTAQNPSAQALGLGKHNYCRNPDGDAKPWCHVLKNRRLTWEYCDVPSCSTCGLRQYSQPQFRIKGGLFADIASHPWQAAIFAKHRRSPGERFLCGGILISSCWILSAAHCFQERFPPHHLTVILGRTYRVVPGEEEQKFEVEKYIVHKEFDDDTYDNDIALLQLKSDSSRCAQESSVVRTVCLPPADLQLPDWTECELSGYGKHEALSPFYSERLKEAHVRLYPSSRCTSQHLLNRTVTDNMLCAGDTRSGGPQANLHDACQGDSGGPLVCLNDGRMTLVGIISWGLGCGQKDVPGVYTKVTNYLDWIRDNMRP
RECORDED_ENDPOINT: Ki

Just so you know, measured Ki for Cc1ncc2n1C(=O)N(C1CCN(C(=O)[C@H](O)CS(=O)(=O)c3ccc4cc(Cl)ccc4c3)CC1)C2 came out at > 60 µM

###

- PROCEDURE_TEXT: Total clearance in cynomolgus monkey at 0.1 mg/kg, iv
- Type: ADME, organism-based, Macaca fascicularis
- Design: dose 0.1 mg/kg, route intravenous
- STUDY_CONDITIONS: in vivo
RECORDED_ENDPOINT: clearance (mL/min/kg)
Quick note: give the figure in mL/min/kg, leave out the unit.

Consider O=C(CCS(=O)(=O)c1ccc2cc(Cl)ccc2c1)N1CCC(N2Cc3cnc(CO)n3C2=O)CC1 . Its measured clearance is 11.9

Record Cc1ncc2n1C(=O)N(C1CCN(C(=O)[C@H](O)CS(=O)(=O)c3ccc4cc(Cl)ccc4c3)CC1)C2 . Reported clearance: 14.2

###

RECORDED_ENDPOINT: pKi
Quick note: pKi values are minus log10 of concentrations in mol/L.

Reading of pKi for Cc1ncc2n1C(=O)N(C1CCN(C(=O)[C@H](O)CS(=O)(=O)c3ccc4cc(Cl)ccc4c3)CC1)C2 with Prothrombin (Homo sapiens): 5.72

###

- PROCEDURE_TEXT: Plasma concentration in cynomolgus monkey at 1 mg/kg, po after 4 hrs
- Format: ADME, organism-based, Macaca fascicularis
- Parameters: dose 1 mg/kg, route oral
RECORDED_ENDPOINT: concentration at 4 h (ng/mL)
Give a bare numeral; the unit ng/mL is implied.

Noted for Cc1ncc2n1C(=O)N(C1CCN(C(=O)[C@@H](O)CS(=O)(=O)c3ccc4cc(Cl)ccc4c3)CC1)C2 : its concentration at 4 h reads 91

Quick note, concentration at 4 h for Cc1ncc2n1C(=O)N(C1CCN(C(=O)CCS(=O)(=O)c3ccc4cc(Cl)ccc4c3)CC1)C2 landed at 65.9

The molecule listed as Cc1ncc2n1C(=O)N(C1CCN(C(=O)[C@H](O)CS(=O)(=O)c3ccc4cc(Cl)ccc4c3)CC1)C2 shows concentration at 4 h equal to 6.5

response.value for O=C(CCS(=O)(=O)c1ccc2cc(Cl)ccc2c1)N1CCC(N2Cc3cnc(CO)n3C2=O)CC1 (field: concentration at 4 h) = 13.3
